The origin of these recorded values is paper PMC7532339.

- Tested on: Vero-E6 cells
- test: Cytotoxicity assay (CCK-8)
- Format: cell-based
- condition.notes: Vero-E6 cells, 48 h, CCK-8
readout.name: CC50

Check out these entries, answers already filled in.
compound	CC50
C=C(C)[C@@H]1CC[C@]2(C)[C@H](CC=C3[C@@H]4[C@@H](C)[C@H](C)CC[C@]4(C)CC[C@]32C)[C@@]1(C)CCC(=O)O	> 40 µM
C=C1C(=O)O[C@@H]2C[C@@]3(C)CCC[C@H](C)C3=C[C@H]12	36.7 µM

Provide each entry's CC50 from the list below.
1. C/C=C/c1cc(OC)c2c(c1)C(C)C(c1ccc(O)c(OC)c1)O2 (centres unmarked) [Dehydrodiisoeugenol]
2. CC1(C)CC[C@]2(C(=O)O)CC[C@]3(C)C(=CC[C@@H]4[C@@]5(C)CC[C@H](O[C@@H]6O[C@H](C(=O)O)[C@@H](O)[C@H](O[C@@H]7OC[C@@H](O)[C@H](O)[C@H]7O)[C@H]6O)C(C)(C)[C@@H]5CC[C@]43C)[C@@H]2C1
3. CC(=O)O[C@H]1C[C@]2(O)[C@@H]3CC[C@@H]4C[C@@H](O)CC[C@]4(C)[C@H]3CC[C@]2(C)[C@H]1c1ccc(=O)oc1

stdout:
1. > 100 µM
2. > 40 µM
3. > 40 µM

Provide each entry's CC50 from the list below.
1. COc1cc2c(cc1OC)[C@@H](Cc1ccc(O)c(Oc3cc4c(cc3OC)CCN(C)[C@@H]4Cc3ccc(O)cc3)c1)N(C)CC2
2. C=C[C@H]1[C@H](O[C@@H]2O[C@H](CO)[C@@H](O)[C@H](O)[C@H]2O)OC=C(C(=O)OC)[C@H]1CCOC(=O)c1cc(O)c(O)c(O)c1 [Cornuside]
3. CO[C@H]1C[C@H](O[C@H]2CC[C@]3(C)[C@H]4CC[C@]5(C)[C@@H](C6=CC(=O)OC6)CC[C@]5(O)[C@@H]4CC[C@]3(O)C2)O[C@H](C)[C@H]1O[C@@H]1O[C@H](CO)[C@@H](O)[C@H](O)[C@H]1O [Periplocoside]

stdout:
25.4 µM
> 40 µM
> 40 µM
